Values were extracted from patent US7125995B2.

test target: human PARS enzyme (Homo sapiens, UniProt P09874)
Sequence (P09874 whole entry): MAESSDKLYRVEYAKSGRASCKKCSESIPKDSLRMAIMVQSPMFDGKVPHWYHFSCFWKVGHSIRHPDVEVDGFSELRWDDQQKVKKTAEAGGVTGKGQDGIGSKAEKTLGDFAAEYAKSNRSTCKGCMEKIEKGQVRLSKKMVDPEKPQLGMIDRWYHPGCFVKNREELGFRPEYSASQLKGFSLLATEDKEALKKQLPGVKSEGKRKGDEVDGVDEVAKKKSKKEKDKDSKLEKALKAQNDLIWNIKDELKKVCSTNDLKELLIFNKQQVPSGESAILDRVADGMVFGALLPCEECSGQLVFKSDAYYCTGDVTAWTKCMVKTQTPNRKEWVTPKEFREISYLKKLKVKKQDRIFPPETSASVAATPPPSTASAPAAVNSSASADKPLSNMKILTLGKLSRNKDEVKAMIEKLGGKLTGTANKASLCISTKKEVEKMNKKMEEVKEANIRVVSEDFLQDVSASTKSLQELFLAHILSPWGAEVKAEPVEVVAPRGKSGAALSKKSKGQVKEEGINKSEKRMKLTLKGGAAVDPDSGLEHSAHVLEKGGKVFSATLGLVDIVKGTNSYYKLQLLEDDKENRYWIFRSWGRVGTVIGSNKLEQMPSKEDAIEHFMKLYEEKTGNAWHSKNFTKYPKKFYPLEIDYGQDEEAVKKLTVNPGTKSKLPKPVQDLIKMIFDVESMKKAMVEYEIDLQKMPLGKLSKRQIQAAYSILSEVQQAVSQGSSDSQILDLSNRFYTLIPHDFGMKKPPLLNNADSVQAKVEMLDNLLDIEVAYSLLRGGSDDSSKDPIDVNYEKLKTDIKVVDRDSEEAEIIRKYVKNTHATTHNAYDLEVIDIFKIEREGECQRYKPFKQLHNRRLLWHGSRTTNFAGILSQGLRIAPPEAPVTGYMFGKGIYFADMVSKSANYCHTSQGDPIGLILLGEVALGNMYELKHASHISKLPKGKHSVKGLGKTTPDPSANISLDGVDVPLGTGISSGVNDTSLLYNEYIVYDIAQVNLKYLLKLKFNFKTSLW
assay summary: PARS inhibition test (in vitro)
experimental setup: recombinant human PARS, [14C]-NAD+, 10 min room temperature
pIC50: −log10 of the molar value.
Form field: pIC50 (one value per entry).

{"molecule": "O=C(CCn1c2c(c(=O)[nH]c1=O)CSCC2)NCC(=O)c1ccc2ccccc2c1 [Example 6]", "test target": "human PARS enzyme (Homo sapiens, UniProt P09874)", "pIC50": 8.07}
{"molecule": "Cc1csc2c(N3CCN(C(=O)CNC(=O)CCn4c5c(c(=O)[nH]c4=O)CSCC5)CC3)ncnc12 [Example 15]", "test target": "human PARS enzyme (Homo sapiens, UniProt P09874)", "pIC50": 7.82}
{"molecule": "O=C(CCn1c2c(c(=O)[nH]c1=O)CCCC2)NCC(=O)c1ccc(-c2ccncc2)cc1 [Example 7]", "test target": "human PARS enzyme (Homo sapiens, UniProt P09874)", "pIC50": 7.92}
{"molecule": "O=C(CCn1c2c(c(=O)[nH]c1=O)CCCC2)NCC(=O)N1CCN(c2ccccc2C(F)(F)F)CC1 [Example 54]", "test target": "human PARS enzyme (Homo sapiens, UniProt P09874)", "pIC50": 7.10}

###

Tested on: MHEC5-T cells
assay summary: Cell protection assay (in vitro), H2O2-induced cell death, Alamar blue
Format: cell-based
experimental setup: 3 mM H2O2, 5 hours, 37° C., 50% of maximum cell protection, 10 μM DHCH defined as 100%, read-out: Cell protection (in vitro) EC50
pEC50: −log10 of the molar value.
assay readout: pEC50

{"compound smiles": "O=C(CCn1c2c(c(=O)[nH]c1=O)CCCC2)NCC(=O)N1CCN(c2ncc(F)cn2)CC1", "assay readout": "pEC50", "experimental value": 7.05}
{"compound smiles": "O=C(CCn1c2c(c(=O)[nH]c1=O)CSCC2)NCC(=O)c1ccc(-c2cnccn2)cc1", "assay readout": "pEC50", "experimental value": 7.15}
{"compound smiles": "O=C(CCn1c2c(c(=O)[nH]c1=O)CSCC2)NCC(=O)N1CCN(c2ncc(Br)cn2)CC1", "assay readout": "pEC50", "experimental value": 7.70}
{"compound smiles": "O=C(CCn1c2c(c(=O)[nH]c1=O)CSCC2)NCC(=O)c1ccc(-c2ccc3c(c2)OCO3)cc1", "assay readout": "pEC50", "experimental value": 7.02}
{"compound smiles": "O=C(CCn1c2c(c(=O)[nH]c1=O)CCCC2)NCC(=O)N1CCN(c2ccc([N+](=O)[O-])cc2)CC1", "assay readout": "pEC50", "experimental value": 6.70}
{"compound smiles": "O=C(CCn1c2c(c(=O)[nH]c1=O)CSCC2)NCC(=O)N1CCN(c2ccccc2)CC1", "assay readout": "pEC50", "experimental value": 7.00}
{"compound smiles": "O=C(CCn1c2c(c(=O)[nH]c1=O)CCCC2)NCC(=O)c1ccc(-c2ccncc2)cc1", "assay readout": "pEC50", "experimental value": 7.05}
{"compound smiles": "Cc1csc2c(N3CCN(C(=O)CNC(=O)CCn4c5c(c(=O)[nH]c4=O)CSCC5)CC3)ncnc12", "assay readout": "pEC50", "experimental value": 7.30}
